# subject_of_test: T1, BMPRIb receptor-Fc fusion (UniProt O00238 14-126)
# T1 construct: BMP receptor-Fc fusion used at 5 ug/mL; also called ALK-6
# T1 sequence (looked up): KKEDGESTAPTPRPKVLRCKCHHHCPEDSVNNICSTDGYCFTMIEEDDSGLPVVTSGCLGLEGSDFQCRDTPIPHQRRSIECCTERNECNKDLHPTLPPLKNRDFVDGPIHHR
# method_summary: ELISA-like plate assay, captured BMP-7 from conditioned media, receptor-Fc detection
Measured BMPRIb binding (relative to wild type = 1.0), listed per entry for reference.

{"binder": "BMP-7 variant Q53K (ligand, In conditioned media; numbering on mature BMP-7) STGGKQRSQNRSKTPKNQEALRMASVAENSSSDQRQACKKHELYVSFRDLGWKDWIIAPEGYAAYYCEGECAFPLNSYMNATNHAIVQTLVHFINPETVPKPCCAPTQLNAISVLYFDDSSNVILKKYRNMVVRACGCH", "data_value": "2.03 relative to wild type"}
{"binder": "BMP-7 variant N76T (ligand, In conditioned media; numbering on mature BMP-7) STGGKQRSQNRSKTPKNQEALRMASVAENSSSDQRQACKKHELYVSFRDLGWQDWIIAPEGYAAYYCEGECAFPLTSYMNATNHAIVQTLVHFINPETVPKPCCAPTQLNAISVLYFDDSSNVILKKYRNMVVRACGCH", "data_value": "0.98 relative to wild type"}
{"binder": "BMP-7 variant Y44N (ligand, In conditioned media; numbering on mature BMP-7) STGGKQRSQNRSKTPKNQEALRMASVAENSSSDQRQACKKHELNVSFRDLGWQDWIIAPEGYAAYYCEGECAFPLNSYMNATNHAIVQTLVHFINPETVPKPCCAPTQLNAISVLYFDDSSNVILKKYRNMVVRACGCH", "data_value": "1.81 relative to wild type"}
{"binder": "BMP-7 variant W52P (ligand, In conditioned media; numbering on mature BMP-7) STGGKQRSQNRSKTPKNQEALRMASVAENSSSDQRQACKKHELYVSFRDLGPQDWIIAPEGYAAYYCEGECAFPLNSYMNATNHAIVQTLVHFINPETVPKPCCAPTQLNAISVLYFDDSSNVILKKYRNMVVRACGCH", "data_value": "0.14 relative to wild type"}
{"binder": "BMP-7 variant Q53D (ligand, In conditioned media; numbering on mature BMP-7) STGGKQRSQNRSKTPKNQEALRMASVAENSSSDQRQACKKHELYVSFRDLGWDDWIIAPEGYAAYYCEGECAFPLNSYMNATNHAIVQTLVHFINPETVPKPCCAPTQLNAISVLYFDDSSNVILKKYRNMVVRACGCH", "data_value": "3.74 relative to wild type"}

Query block: May I ask what BMPRIb binding (relative to wild type = 1.0) has been recorded for BMP-7 variant Y78H (ligand, In conditioned media; numbering on mature BMP-7) STGGKQRSQNRSKTPKNQEALRMASVAENSSSDQRQACKKHELYVSFRDLGWQDWIIAPEGYAAYYCEGECAFPLNSHMNATNHAIVQTLVHFINPETVPKPCCAPTQLNAISVLYFDDSSNVILKKYRNMVVRACGCH ?
Result block: 1.34 relative to wild type

Query block: Can you share its BMPRIb binding (relative to wild type = 1.0)? I mean this binder: BMP-7 variant R48N (ligand, In conditioned media; numbering on mature BMP-7) STGGKQRSQNRSKTPKNQEALRMASVAENSSSDQRQACKKHELYVSFNDLGWQDWIIAPEGYAAYYCEGECAFPLNSYMNATNHAIVQTLVHFINPETVPKPCCAPTQLNAISVLYFDDSSNVILKKYRNMVVRACGCH
Result block: 0.43 relative to wild type
